Measured pKd, listed per entry for reference.
Tgt: CaM (Bos taurus, UniProt P62157)
Construct: made in house; host or cells: E. coli BL21 (DE3)
Assay protocol: Pull-down assay with immobilized protein and LSM libraries
Type: binding, bovine
Condition set: H14 library; 1:2 stoichiometry assumed; read-out: Surface mapping KD (apparent)
# pKd = -log10(concentration in molar units)

Example results:
NC(=O)C[C@@H](CC(=O)N[C@H]1CCCC[C@@H]1C(N)=O)NC(=O)[C@H]1CCCC[C@@H]1NC(=O)[C@H]1CCCC[C@@H]1NC(=O)C[C@H](Cc1c[nH]c2ccccc12)NC(=O)[C@H]1CCCC[C@@H]1N 4.85
NCCCC[C@@H](CC(=O)N[C@H]1CCCC[C@@H]1C(N)=O)NC(=O)[C@H]1CCCC[C@@H]1NC(=O)[C@H]1CCCC[C@@H]1NC(=O)C[C@H](Cc1ccccc1)NC(=O)[C@H]1CCCC[C@@H]1N 5.40
CSCC[C@@H](CC(=O)N[C@H]1CCCC[C@@H]1C(=O)N[C@H]1CCCC[C@@H]1C(=O)N[C@H](CC(=O)N[C@H]1CCCC[C@@H]1C(N)=O)Cc1ccc(O)cc1)NC(=O)[C@H]1CCCC[C@@H]1N 4.82

// lookup pKd for `CSCC[C@@H](CC(=O)N[C@H]1CCCC[C@@H]1C(N)=O)NC(=O)[C@H]1CCCC[C@@H]1NC(=O)[C@H]1CCCC[C@@H]1NC(=O)C[C@H](Cc1ccc(O)cc1)NC(=O)[C@H]1CCCC[C@@H]1N`
5.15

Which value of pKd has been reported for `CC(C)[C@@H](CC(=O)N[C@H]1CCCC[C@@H]1C(=O)N[C@H]1CCCC[C@@H]1C(=O)N[C@H](CC(=O)N[C@H]1CCCC[C@@H]1C(N)=O)Cc1ccc(O)cc1)NC(=O)[C@H]1CCCC[C@@H]1N` in the records?
4.52

----------
// reported pKd for each item listed
Tgt: RecQ-WH (Escherichia coli, UniProt P15043)
Construct: coding for residues 408– 523 of E. coli RecQ; made in house; host or cells: E. coli BL21(DE3)
Sequence (P15043 408-523): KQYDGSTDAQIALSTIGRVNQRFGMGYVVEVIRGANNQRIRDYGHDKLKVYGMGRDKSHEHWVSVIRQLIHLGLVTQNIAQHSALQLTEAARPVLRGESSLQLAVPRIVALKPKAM
Assay protocol: Pull-down assay with immobilized protein and LSM libraries
Parameters: species or system E. coli
Condition set: H14 library; 1:1 binding assumed; read-out: Surface mapping KD (apparent)
The scale used: pKd is minus the common logarithm of the concentration in molar units.

N=C(N)NCCC[C@@H](CC(=O)N[C@H]1CCCC[C@@H]1C(=O)N[C@H]1CCCC[C@@H]1C(=O)N[C@H](CC(=O)N[C@H]1CCCC[C@@H]1C(N)=O)Cc1c[nH]c2ccccc12)NC(=O)[C@H]1CCCC[C@@H]1N 3.70
NCCCC[C@@H](CC(=O)N[C@H]1CCCC[C@@H]1C(N)=O)NC(=O)[C@H]1CCCC[C@@H]1NC(=O)[C@H]1CCCC[C@@H]1NC(=O)C[C@H](CC(=O)O)NC(=O)[C@H]1CCCC[C@@H]1N 3.50
NC(=O)[C@H]1CCCC[C@@H]1NC(=O)C[C@H](Cc1ccc(O)cc1)NC(=O)[C@H]1CCCC[C@@H]1NC(=O)[C@H]1CCCC[C@@H]1NC(=O)C[C@H](Cc1ccc(O)cc1)NC(=O)[C@H]1CCCC[C@@H]1N 3.94
C[C@@H](O)[C@@H](CC(=O)N[C@H]1CCCC[C@@H]1C(N)=O)NC(=O)[C@H]1CCCC[C@@H]1NC(=O)[C@H]1CCCC[C@@H]1NC(=O)C[C@H](Cc1c[nH]c2ccccc12)NC(=O)[C@H]1CCCC[C@@H]1N 3.78
NC(=O)[C@H]1CCCC[C@@H]1NC(=O)C[C@H](Cc1c[nH]c2ccccc12)NC(=O)[C@H]1CCCC[C@@H]1NC(=O)[C@H]1CCCC[C@@H]1NC(=O)C[C@H](Cc1ccccc1)NC(=O)[C@H]1CCCC[C@@H]1N 4.20
CSCC[C@@H](CC(=O)N[C@H]1CCCC[C@@H]1C(N)=O)NC(=O)[C@H]1CCCC[C@@H]1NC(=O)[C@H]1CCCC[C@@H]1NC(=O)C[C@H](Cc1c[nH]c2ccccc12)NC(=O)[C@H]1CCCC[C@@H]1N 4.09
NC(=O)[C@H]1CCCC[C@@H]1NC(=O)C[C@H](Cc1ccccc1)NC(=O)[C@H]1CCCC[C@@H]1NC(=O)[C@H]1CCCC[C@@H]1NC(=O)C[C@H](CCC(=O)O)NC(=O)[C@H]1CCCC[C@@H]1N 3.62
N=C(N)NCCC[C@@H](CC(=O)N[C@H]1CCCC[C@@H]1C(=O)N[C@H]1CCCC[C@@H]1C(=O)N[C@@H](CCCCN)CC(=O)N[C@H]1CCCC[C@@H]1C(N)=O)NC(=O)[C@H]1CCCC[C@@H]1N 3.31

May I ask what pKd has been recorded for `NCCCC[C@@H](CC(=O)N[C@H]1CCCC[C@@H]1C(N)=O)NC(=O)[C@H]1CCCC[C@@H]1NC(=O)[C@H]1CCCC[C@@H]1NC(=O)C[C@H](Cc1ccc(O)cc1)NC(=O)[C@H]1CCCC[C@@H]1N` ?
3.39

Report pKd for `CC[C@H](C)[C@@H](CC(=O)N[C@H]1CCCC[C@@H]1C(=O)N[C@H]1CCCC[C@@H]1C(=O)N[C@H](CC(=O)N[C@H]1CCCC[C@@H]1C(N)=O)Cc1c[nH]c2ccccc12)NC(=O)[C@H]1CCCC[C@@H]1N` please.
3.71

Fill in the blank: the reported pKd of `CC(C)C[C@@H](CC(=O)N[C@H]1CCCC[C@@H]1C(N)=O)NC(=O)[C@H]1CCCC[C@@H]1NC(=O)[C@H]1CCCC[C@@H]1NC(=O)C[C@H](CC(=O)O)NC(=O)[C@H]1CCCC[C@@H]1N` is ____.
3.37

Could you share which pKd value was measured for `CC[C@H](C)[C@@H](CC(=O)N[C@H]1CCCC[C@@H]1C(=O)N[C@H]1CCCC[C@@H]1C(=O)N[C@H](CC(=O)N[C@H]1CCCC[C@@H]1C(N)=O)Cc1ccc(O)cc1)NC(=O)[C@H]1CCCC[C@@H]1N` ?
3.52

Where do the numbers come from? From paper PMC8162404.
